- experimental-target: SHP2-C SH2
- run-description: SH2 binding enrichment of the phosphorylated peptide, bacterial display (enrichment ratio); higher = better substrate or ligand; peptides without Tyr show the background
parameter-measured: SH2 binding enrichment

## Task Lookup: SH2 binding enrichment / SHP2-C SH2 / DTLASYLDKVR [KRT12_Y139_R135T]
## Result 0.73

## Task Under SHP2-C SH2: SH2 binding enrichment value of LGMSQYFRLFN [CPT2_Y217_D213G] ?
## Result 3.46

## Task What is its SH2 binding enrichment for SHP2-C SH2? Entry: TNYSLYLRSLE [MTM1_Y71_R69S]
## Result 12.1

## Task Requested read-out SH2 binding enrichment, target or system SHP2-C SH2, entry KSVSQYLEMDK [CAGE1_Y438]
## Result 0.528

## Task Write down the reported SH2 binding enrichment of TTGGFYSFGGG [KRT24_Y120_A115T_YF] , test system: SHP2-C SH2.
## Result 0.618

## Task Lookup: SH2 binding enrichment / SHP2-C SH2 / TARREYMHSPS [CPOX_Y429_W427R]
## Result 0.647

## Task # value lookup — system SHP2-C SH2, readout SH2 binding enrichment, item RTTIHYNYMCN [TP53_Y234_C229R]
## Result 0.603

## Task Value wanted: SH2 binding enrichment (SHP2-C SH2) of entry QDDTVYMGKVT [DCTN1_Y1244]
## Result 0.974

## Task API: value(readout=SH2 binding enrichment, system=SHP2-C SH2) for record ALPVFYAATIA [SLC20A2_Y187]
## Result 0.889

## Task API: value(readout= SH2 binding enrichment, system= SHP2-C SH2, query= QNTGVYYDLYG [PTPN11_Y62_D61V] )
## Result 0.892

## Task Field: SH2 binding enrichment (SHP2-C SH2). Entry: VERRVYAEDPF [PCCA_Y401_C398R_YF]
## Result 0.777

## Task Give SH2 binding enrichment (SHP2-C SH2) of the following sequence: FVPAAYVKKLD [SPTAN1_Y1020]
## Result 0.605

## Task SH2 binding enrichment of VFPIDYFFPPQ [AR_Y552_L548F_YF] on SHP2-C SH2?
## Result 1.32

## Task API: value(readout=SH2 binding enrichment, system=SHP2-C SH2) for record VDDEIYYFRKP [PBRM1_Y1289]
## Result 0.57

## Task Checklist item: SH2 binding enrichment tested on SHP2-C SH2, entry KTVQDYLEKFF [MMP8_Y36_YF] , value?
## Result 0.719

## Task Lab request: please report SH2 binding enrichment under test system SHP2-C SH2 for SHLEDYPFDAE [AKR1B10_Y310_N313D]
## Result 0.842

## Task Enter reported SH2 binding enrichment observed with SHP2-C SH2 for SREALYNETDP [CACNA1A_Y794_M797T]
## Result 0.641

## Task Short answer please: SH2 binding enrichment, SHP2-C SH2, entry FSCLPYRRLAY [SLC52A2_Y305_G306R]
## Result 0.653

## Task Can you look up SH2 binding enrichment on SHP2-C SH2 for SVVVPHEPPEV [TP53_Y220_Y220H] ?
## Result 0.902

## Task So what SH2 binding enrichment did ELPEKYSQNIF [PKP2_Y626_YF] get with SHP2-C SH2?
## Result 0.711

## Task Request: SH2 binding enrichment, test system SHP2-C SH2, entry SERNNYSRVAN [CWC22_Y797]
## Result 5.32

## Task Give the reported SH2 binding enrichment for ANNEYYFQVCA (system: SHP2-C SH2).
## Result 0.491

## Task Given the entry KAPVDYIRKLQ [MITF_Y360_S357P] , what SH2 binding enrichment was observed with SHP2-C SH2?
## Result 0.621

## Task Recall the recorded SH2 binding enrichment for FADIAYNYRHR [PAH_Y166_G171R] with SHP2-C SH2 and state it.
## Result 0.773

## Task Item: EVEPRYVVLFD [ERCC4_Y577_YF] Test system: SHP2-C SH2 Read-out: SH2 binding enrichment Value: ?
## Result 1.33

## Task Record lookup: for SHP2-C SH2, what SH2 binding enrichment belongs to LRFEVYGGENE [STOX1_Y610_YF] ?
## Result 0.842

## Task // lookup SH2 binding enrichment | system=SHP2-C SH2 | key= TSSGGYRRTPS [ABI1_Y333]
## Result 0.56

## Task # get_value(readout= SH2 binding enrichment, system= SHP2-C SH2) for SEHLTYLEFKS [RASGRP1_Y215];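 also: peptide library displayed on the E. coli surface as eCPX fusions, selected cells deep-sequenced, score is each peptide's frequency after selection divided by its frequency in the input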
## Result 0.52

## Task What value of SH2 binding enrichment on SHP2-C SH2 does GPQGVYSNKLV [PTPN14_Y506] have?
## Result 0.724
